All values here come from ChEMBL document CHEMBL2375345.

System: Trypanosoma cruzi
assay_protocol: Trypanocidal activity against Trypanosoma cruzi
test_readout: IC50 (µM)
Write the number in µM without appending the unit.

For the compound shown here, CC1CS(=O)(=O)CCN1/N=C/c1ccc([N+](=O)[O-])o1 (stereo unspecified) , give the reported IC50.
1.8

----------
assay_protocol: Cytotoxicity against human MRC5 cells assessed as cell viability after 7 days by Alamar blue assay
Format: cell-based
test_readout: CC50 at 168 h

Completed entries (count: 5):
COc1nc2ccc(Br)cc2c2c1C(C)(OC(=O)N(C)C)c1ccccc1-2 (stereo not drawn): 64 µM
CCCCC(=O)OC1(C)c2ccccc2-c2c1c(-n1ccnc1)nc1ccc(Br)cc21 (stereo not drawn): 21.8 µM
COc1cccc(NC(=O)Nc2ccc3nc(Oc4ccc(F)cc4C(C)O)c(Cc4ccccc4)cc3c2)c1 (stereo not drawn): 64 µM
COc1nc2ccc(Br)cc2cc1C(c1ccccc1)n1ccnc1 (stereo not drawn): 30.8 µM
COc1cccc(NC(=S)Nc2ccc3nc(Oc4ccc(F)cc4C(C)O)c(Cc4ccccc4)cc3c2)c1 (stereo not drawn): 64 µM

For the compound shown here, COc1nc2ccc(Br)cc2c2c1C(C)(OCC(O)Cn1ccnc1)c1ccccc1-2 (stereo not drawn) , give the reported CC50 at 168 h.
8 µM

For the compound shown here, O/N=C1\c2ccccc2-c2c1c(N1CCN(c3ccccn3)CC1)nc1ccc(Br)cc21 , give the reported CC50 at 168 h.
64 µM

For the compound shown here, COc1cccc(-c2ccn(CC(O)c3cc(F)ccc3Oc3nc4ccc([N+](=O)[O-])cc4cc3Cc3ccccc3)n2)c1 (stereo not drawn) , give the reported CC50 at 168 h.
64 µM

For the compound shown here, CC1(O)c2ccccc2-c2c1c(-n1ccnc1)nc1ccc(Br)cc21 (stereo not drawn) , give the reported CC50 at 168 h.
11.5 µM

For the compound shown here, CC(C)(C)OC(=O)N1CCCC1C(=O)O/N=C1\c2ccccc2-c2c1c(-n1ccnc1)nc1ccc(Br)cc21 (stereo not drawn) , give the reported CC50 at 168 h.
8 µM

For the compound shown here, OC(c1ccccc1)c1c(C(F)(F)F)nc2ccc(Br)cc2c1Br (stereo not drawn) , give the reported CC50 at 168 h.
1.51 µM

----------
The following molecules are listed with their measured CC50 at 168 h values.
assay_protocol: Cytotoxicity against human MRC5 cells assessed as cell viability after 7 days by Alamar blue assay
Type: cell-based
Write the number in µM without appending the unit.

Completed entries (count: 5):
O=[N+]([O-])c1ccc2nc(Oc3ccc(F)cc3C(O)Cn3ccnc3)c(Cc3ccccc3)cc2c1 (stereo not drawn): 31.4
COc1nc2ccc(Br)cc2c2c1C(C)(OCC(O)Cn1ccc(-c3cccc(C(F)(F)F)c3)n1)c1ccccc1-2 (stereo not drawn): 24.1
CC(O)c1cc(F)ccc1Oc1nc2ccc(NS(=O)(=O)c3cccc(C(F)(F)F)c3)cc2cc1Cc1ccccc1 (stereo not drawn): 8
CCCC(=O)O/N=C1\c2ccccc2-c2c1c(-n1ccnc1)nc1ccc(Br)cc21: 8.23
CC(C)(C)OC(=O)N1CCCC(C(=O)O/N=C2\c3ccccc3-c3c2c(C(F)(F)F)nc2ccc(Br)cc32)C1 (stereo not drawn): 5.84

For the molecule shown here, CC(=O)OC1(C)c2ccccc2-c2c1c(-n1ccnc1)nc1ccc(Br)cc21 (stereo not drawn) , give the reported CC50 at 168 h.
32.2

For the molecule shown here, COc1nc2ccc(Br)cc2c2c1C(C)(OCC(O)CN)c1ccccc1-2 (stereo not drawn) , give the reported CC50 at 168 h.
1.36

For the molecule shown here, COc1cccc(N2CCN(CC(O)COC3(C)c4ccccc4-c4c3c(N3CCN(C(c5ccccc5)c5ccccc5)CC3)nc3ccc(Br)cc43)CC2)c1 (stereo not drawn) , give the reported CC50 at 168 h.
61.4

----------
System: Trypanosoma brucei rhodesiense
assay_protocol: Antiprotozoal activity against trypomastigote form of Trypanosoma brucei rhodesiense STIB900 assessed as parasite growth inhibition after 72 hrs by Alamar blue assay
Format: functional, organism-based
conditions_used: STIB900, 72 h
The following molecules are listed with their measured IC50 values.
Write the number in nM without appending the unit.

For the molecule shown here, O=[N+]([O-])c1ccc2nc(Oc3ccc(F)cc3C(O)CN3CCCCC3)c(Cc3ccccc3)cc2c1 (stereo not drawn) , give the reported IC50.
1220

For the molecule shown here, CSCCC(NC(=O)OC(C)(C)C)C(=O)O/N=C1\c2ccccc2-c2c1c(N1CCN(c3ccccn3)CC1)nc1ccc(Br)cc21 (stereo not drawn) , give the reported IC50.
1440

For the molecule shown here, O/N=C1\c2ccccc2-c2c1c(N1CCN(c3ccccn3)CC1)nc1ccc(Br)cc21 , give the reported IC50.
2610

For the molecule shown here, CC1(O)c2ccccc2-c2c1c(OCC(F)(F)F)nc1ccc(Br)cc21 (stereo not drawn) , give the reported IC50.
3230

For the molecule shown here, COc1ccc(-c2ccn(CC(O)c3cc(F)ccc3Oc3nc4ccc([N+](=O)[O-])cc4cc3Cc3ccccc3)n2)cc1 (stereo not drawn) , give the reported IC50.
710

For the molecule shown here, COc1nc2ccc(Br)cc2c2c1C(C)(OCC(O)CN1CCN(Cc3ccccc3)CC1)c1ccccc1-2 (mixture of isomers) , give the reported IC50.
1990

For the molecule shown here, COc1nc2ccc(Br)cc2c2c1C(C)(OCC(O)Cn1ccc(-c3cccc(C(F)(F)F)c3)n1)c1ccccc1-2 (stereo not drawn) , give the reported IC50.
1250

For the molecule shown here, COc1cccc(-c2ccn(CC(O)c3cc(F)ccc3Oc3nc4ccc([N+](=O)[O-])cc4cc3Cc3ccccc3)n2)c1 (stereo not drawn) , give the reported IC50.
2080

----------
The following compounds are listed with their measured log10(CC50 at 168 h) values.
assay_protocol: Cytotoxicity against human MRC5 cells assessed as cell viability after 7 days by Alamar blue assay
Format: cell-based
Each number you see is log10 of CC50 at 168 h, and the unit inside the log is µM.

Completed entries (count: 4):
O=C1c2ccccc2-c2c1c(Nc1ccncc1)nc1ccc(Br)cc21: -0.12
CC(C)(C)OC(=O)NC(C(=O)O/N=C1\c2ccccc2-c2c1c(N1CCN(c3ccccn3)CC1)nc1ccc(Br)cc21)C(C)(C)C (stereo not given): 1.55
COc1ccc(NC(=S)Nc2ccc3nc(Oc4ccc(F)cc4C(C)O)c(Cc4ccccc4)cc3c2)cc1 (stereo not given): 1.63
O=C1c2ccccc2-c2c1c(N1CCN(c3ccccn3)CC1)nc1ccc(Br)cc21: 0.64

Now for the compound whose log10(CC50 at 168 h) we want.
For the compound shown here, CC1(O)c2ccccc2-c2c1c(OCC(F)(F)F)nc1ccc(Br)cc21 (stereo not given) , give the reported log10(CC50 at 168 h).
1.30

----------
assay_protocol: Selectivity index, ratio of CC50 for human MRC5 cells to IC50 for epimastigote form of Trypanosoma cruzi Tulahuen 2
Format: functional
test_readout: Ratio CC50/IC50
// keep it numeric: no unit symbol after the value

COc1nc2ccc(Br)cc2c2c1C(C)(OCC(O)Cn1ccc(-c3cccc(C(F)(F)F)c3)n1)c1ccccc1-2 (configuration not stated): 4.5
COc1nc2ccc(Br)cc2cc1C(c1ccccc1)n1cnc([N+](=O)[O-])c1 (configuration not stated): 9.19
COc1nc2ccc(Br)cc2c2c1C(C)(OCC(O)Cn1ccnc1)c1ccccc1-2 (configuration not stated): 3.7
COc1nc2ccc(Br)cc2cc1C(c1ccccc1)n1ccnc1 (configuration not stated): 67.02
CSCCC(NC(=O)OC(C)(C)C)C(=O)O/N=C1\c2ccccc2-c2c1c(N1CCN(c3ccccn3)CC1)nc1ccc(Br)cc21 (configuration not stated): 8.66
CCCCC(=O)OC1(C)c2ccccc2-c2c1c(-n1ccnc1)nc1ccc(Br)cc21 (configuration not stated): 14.91
CC1(O)c2ccccc2-c2c1c(-n1ccnc1)nc1ccc(Br)cc21 (configuration not stated): 8.23
CC(C)CC(NC(=O)OCC1c2ccccc2-c2ccccc21)C(=O)O/N=C1\c2ccccc2-c2c1c(N1CCN(c3ccccn3)CC1)nc1ccc(Br)cc21 (configuration not stated): 1.8

For the molecule shown here, COc1cccc(N2CCN(CC(O)COC3(C)c4ccccc4-c4c3c(N3CCN(C(c5ccccc5)c5ccccc5)CC3)nc3ccc(Br)cc43)CC2)c1 (configuration not stated) , give the reported Ratio CC50/IC50.
0.96

For the molecule shown here, COc1ccc(-c2ccn(CC(O)c3cc(F)ccc3Oc3nc4ccc([N+](=O)[O-])cc4cc3Cc3ccccc3)n2)cc1 (configuration not stated) , give the reported Ratio CC50/IC50.
33.16

For the molecule shown here, O=[N+]([O-])c1ccc2nc(Oc3ccc(F)cc3C(O)CN3CCCCC3)c(Cc3ccccc3)cc2c1 (configuration not stated) , give the reported Ratio CC50/IC50.
2.2

For the molecule shown here, COc1nc2ccc(Br)cc2c2c1C(C)(OC(=O)N(C)C)c1ccccc1-2 (configuration not stated) , give the reported Ratio CC50/IC50.
8.62

For the molecule shown here, O/N=C1\c2ccccc2-c2c1c(N1CCN(c3ccccn3)CC1)nc1ccc(Br)cc21 , give the reported Ratio CC50/IC50.
9.13

For the molecule shown here, COc1ccccc1NC(=O)Nc1ccc2nc(Oc3ccc(F)cc3C(C)O)c(Cc3ccccc3)cc2c1 (configuration not stated) , give the reported Ratio CC50/IC50.
2.16

For the molecule shown here, COc1nc2ccc(Br)cc2c2c1C(C)(OCC(O)CN1CCN(C(c3ccccc3)c3ccccc3)CC1)c1ccccc1-2 (mixture of isomers) , give the reported Ratio CC50/IC50.
3

For the molecule shown here, CC1(OCC2CO2)c2ccccc2-c2c1c(C(F)(F)F)nc1ccc(Br)cc21 (configuration not stated) , give the reported Ratio CC50/IC50.
0.48

For the molecule shown here, COc1nc2ccc(Br)cc2c2c1C(C)(OCC(O)CN)c1ccccc1-2 (configuration not stated) , give the reported Ratio CC50/IC50.
2.89
